Entry source: patent US9453031B2

biological target: CYP 2C9 (Homo sapiens (Human), UniProt P11712); assay: CYP inhibition assay (P450-Glo); details: read-out: P450-2C9 IC50; recombinant CYP
Sequence (P11712 whole entry): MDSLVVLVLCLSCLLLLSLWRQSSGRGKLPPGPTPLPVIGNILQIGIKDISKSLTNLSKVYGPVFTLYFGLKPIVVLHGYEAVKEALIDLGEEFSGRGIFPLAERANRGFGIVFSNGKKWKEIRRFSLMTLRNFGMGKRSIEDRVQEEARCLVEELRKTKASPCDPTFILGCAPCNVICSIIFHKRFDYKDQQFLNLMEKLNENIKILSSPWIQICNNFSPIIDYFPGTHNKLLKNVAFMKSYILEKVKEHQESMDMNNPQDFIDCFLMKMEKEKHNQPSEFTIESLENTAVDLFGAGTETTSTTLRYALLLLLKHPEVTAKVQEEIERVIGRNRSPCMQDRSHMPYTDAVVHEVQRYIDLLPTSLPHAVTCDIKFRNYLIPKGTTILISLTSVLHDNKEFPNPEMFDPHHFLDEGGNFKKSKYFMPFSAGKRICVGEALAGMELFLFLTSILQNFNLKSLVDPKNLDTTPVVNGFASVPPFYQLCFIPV
READOUT LABEL: IC50

{"INPUT SMILES": "CS(=O)(=O)C1(c2nc(-c3cccc4[nH]ccc34)nc3c2OC[C@@H]2COCCN32)CCOCC1", "VALUE REPORTED": "> 50 µM"}
{"INPUT SMILES": "CNc1nc2ccccc2n1-c1nc2c(c(C(C)(C)S(C)(=O)=O)n1)OC[C@@H]1COCCN21", "VALUE REPORTED": "34 µM"}

----------
pIC50: −log10 of the molar value.
Entries below carry reported pIC50 on mTOR (Homo sapiens (Human), UniProt P42345).
Sequence (P42345 1360-2549): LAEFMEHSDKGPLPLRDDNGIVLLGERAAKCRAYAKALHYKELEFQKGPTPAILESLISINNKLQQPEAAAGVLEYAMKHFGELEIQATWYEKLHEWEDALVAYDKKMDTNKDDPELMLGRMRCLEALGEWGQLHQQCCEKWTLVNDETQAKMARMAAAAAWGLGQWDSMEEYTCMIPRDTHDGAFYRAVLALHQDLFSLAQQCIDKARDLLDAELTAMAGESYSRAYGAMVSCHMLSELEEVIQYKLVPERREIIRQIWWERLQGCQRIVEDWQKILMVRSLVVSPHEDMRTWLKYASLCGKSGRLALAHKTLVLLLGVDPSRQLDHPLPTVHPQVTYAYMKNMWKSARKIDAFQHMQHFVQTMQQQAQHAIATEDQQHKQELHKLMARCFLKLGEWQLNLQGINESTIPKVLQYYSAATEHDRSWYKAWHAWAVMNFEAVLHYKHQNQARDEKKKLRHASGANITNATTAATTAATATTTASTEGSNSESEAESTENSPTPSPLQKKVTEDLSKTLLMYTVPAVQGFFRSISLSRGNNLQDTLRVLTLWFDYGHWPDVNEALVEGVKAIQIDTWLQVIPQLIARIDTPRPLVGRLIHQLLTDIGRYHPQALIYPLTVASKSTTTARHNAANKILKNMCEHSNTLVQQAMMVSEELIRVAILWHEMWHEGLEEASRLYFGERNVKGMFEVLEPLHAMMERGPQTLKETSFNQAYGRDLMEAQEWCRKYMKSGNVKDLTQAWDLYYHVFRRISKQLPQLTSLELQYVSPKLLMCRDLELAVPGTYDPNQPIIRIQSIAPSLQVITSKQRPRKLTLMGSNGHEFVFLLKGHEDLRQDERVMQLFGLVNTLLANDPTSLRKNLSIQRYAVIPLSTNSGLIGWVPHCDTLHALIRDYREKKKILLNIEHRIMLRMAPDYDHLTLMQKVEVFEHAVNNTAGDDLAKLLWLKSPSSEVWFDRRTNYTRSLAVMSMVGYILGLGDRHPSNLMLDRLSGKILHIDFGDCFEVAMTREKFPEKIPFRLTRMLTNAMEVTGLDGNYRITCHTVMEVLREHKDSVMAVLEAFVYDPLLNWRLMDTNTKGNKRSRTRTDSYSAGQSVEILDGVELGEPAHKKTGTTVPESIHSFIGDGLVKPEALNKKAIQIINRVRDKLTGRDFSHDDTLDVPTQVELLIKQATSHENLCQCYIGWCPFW

{"INPUT SMILES": "CC(C)(c1nc(-c2cccc3[nH]ccc23)nc2c1OCC[C@@H]1COCCN21)S(C)(=O)=O", "RESULT QUALIFIER": "=", "pIC50": 6.24}
{"INPUT SMILES": "CNc1nc2ccc(F)cc2n1-c1nc2c(c(C3(S(C)(=O)=O)CCC3)n1)OC[C@@H]1COCCN21", "RESULT QUALIFIER": "=", "pIC50": 5.17}
{"INPUT SMILES": "COc1cc(-c2nc3c(c(C(C)(C)O)n2)OC[C@@H]2COCCN32)c2cc[nH]c2c1", "RESULT QUALIFIER": "=", "pIC50": 7.42}
{"INPUT SMILES": "Cc1cc2c(-c3nc4c(c(C5(S(C)(=O)=O)CC5)n3)OC[C@@H]3COCCN43)cccc2[nH]1", "RESULT QUALIFIER": "=", "pIC50": 6.65}
{"INPUT SMILES": "CS(=O)(=O)C1(c2nc(-c3ccc(F)c4[nH]ccc34)nc3c2OC[C@@H]2COCCN32)CCOCC1", "RESULT QUALIFIER": "=", "pIC50": 5.00}
{"INPUT SMILES": "CNc1nc2ccc(F)cc2n1-c1nc2c(c(C(C)(C)S(C)(=O)=O)n1)OC[C@@H]1COCCN21", "RESULT QUALIFIER": "=", "pIC50": 5.61}
{"INPUT SMILES": "Cc1cc2c(-c3nc4c(c(C(C)(C)S(C)(=O)=O)n3)OC[C@@H]3COCCN43)cccc2[nH]1", "RESULT QUALIFIER": "=", "pIC50": 7.24}
{"INPUT SMILES": "CS(=O)(=O)C1(c2nc(-c3cc(F)cc4[nH]ccc34)nc3c2OC[C@@H]2COCCN32)CC1", "RESULT QUALIFIER": "=", "pIC50": 6.82}
{"INPUT SMILES": "CS(=O)(=O)C1(c2nc(-c3cc(F)cc4[nH]ccc34)nc3c2OC[C@@H]2COCCN32)CCC1", "RESULT QUALIFIER": "<", "pIC50": 5.00}
{"INPUT SMILES": "CC(C)(c1nc(-c2ccc(F)c3[nH]ccc23)nc2c1OC[C@@H]1COCCN21)S(C)(=O)=O", "RESULT QUALIFIER": "=", "pIC50": 5.74}
{"INPUT SMILES": "CC(C)(O)c1nc(-c2cccc3[nH]ccc23)nc2c1OC[C@@H]1COCCN21", "RESULT QUALIFIER": "=", "pIC50": 7.36}
{"INPUT SMILES": "CS(=O)(=O)C1(c2nc(-c3cccc4[nH]ccc34)nc3c2OC[C@@H]2COCCN32)CC1", "RESULT QUALIFIER": "=", "pIC50": 6.25}
{"INPUT SMILES": "COc1cc(-c2nc3c(c(C(C)(C)S(C)(=O)=O)n2)OC[C@@H]2COCCN32)c2cc[nH]c2c1", "RESULT QUALIFIER": "=", "pIC50": 7.34}
{"INPUT SMILES": "CNc1nc2ccccc2n1-c1nc2c(c(C3(S(C)(=O)=O)CC3)n1)OC[C@@H]1COCCN21", "RESULT QUALIFIER": "=", "pIC50": 6.07}
{"INPUT SMILES": "CC(C)(c1nc(-n2c(N)nc3ccccc32)nc2c1OC[C@@H]1COCCN21)S(C)(=O)=O", "RESULT QUALIFIER": "=", "pIC50": 6.65}
{"INPUT SMILES": "CS(=O)(=O)C1(c2nc(-c3cc(C(F)(F)F)cc4[nH]ccc34)nc3c2OC[C@@H]2COCCN32)CC1", "RESULT QUALIFIER": "=", "pIC50": 6.24}
{"INPUT SMILES": "COc1cc(-c2nc3c(c(C4(S(C)(=O)=O)CCOCC4)n2)OC[C@@H]2COCCN32)c2cc[nH]c2c1", "RESULT QUALIFIER": "=", "pIC50": 6.36}
{"INPUT SMILES": "CS(=O)(=O)C1(c2nc(-c3cccc4[nH]ccc34)nc3c2OCC[C@H]2COCCN32)CCOCC1", "RESULT QUALIFIER": "=", "pIC50": 5.00}
{"INPUT SMILES": "CNc1nc2cc(F)ccc2n1-c1nc2c(c(C3(S(C)(=O)=O)CCC3)n1)OC[C@@H]1COCCN21", "RESULT QUALIFIER": "=", "pIC50": 5.22}
{"INPUT SMILES": "CC(C)(c1nc(-c2c(F)ccc3[nH]ccc23)nc2c1OC[C@H]1COCCN21)S(C)(=O)=O", "RESULT QUALIFIER": "=", "pIC50": 5.00}
{"INPUT SMILES": "CNc1nc2cc(Cl)ccc2n1-c1nc2c(c(C3(S(C)(=O)=O)CC3)n1)OC[C@@H]1COCCN21", "RESULT QUALIFIER": "=", "pIC50": 5.47}
{"INPUT SMILES": "COc1cc(-c2nc3c(c(C4(S(C)(=O)=O)CCC4)n2)OC[C@@H]2COCCN32)c2cc[nH]c2c1", "RESULT QUALIFIER": "=", "pIC50": 7.33}
{"INPUT SMILES": "CC(C)(c1nc(-c2cc(C(F)(F)F)cc3[nH]ccc23)nc2c1OC[C@@H]1COCCN21)S(C)(=O)=O", "RESULT QUALIFIER": "=", "pIC50": 6.64}
{"INPUT SMILES": "CNc1nc2ccc(Cl)cc2n1-c1nc2c(c(C3(S(C)(=O)=O)CC3)n1)OC[C@@H]1COCCN21", "RESULT QUALIFIER": "=", "pIC50": 5.00}
{"INPUT SMILES": "CS(=O)(=O)C1(c2nc(-c3cc(C(F)(F)F)cc4[nH]ccc34)nc3c2OC[C@@H]2COCCN32)CCC1", "RESULT QUALIFIER": "=", "pIC50": 6.63}
{"INPUT SMILES": "CNc1nc2ccccc2n1-c1nc2c(c(C(C)(C)S(C)(=O)=O)n1)OCC[C@@H]1COCCN21", "RESULT QUALIFIER": "=", "pIC50": 5.18}
{"INPUT SMILES": "CS(=O)(=O)C1(c2nc(-c3ccc(F)c4[nH]ccc34)nc3c2OC[C@@H]2COCCN32)CC1", "RESULT QUALIFIER": "=", "pIC50": 5.00}
{"INPUT SMILES": "CNc1nc2cc(Cl)ccc2n1-c1nc2c(c(C(C)(C)S(C)(=O)=O)n1)OC[C@@H]1COCCN21", "RESULT QUALIFIER": "=", "pIC50": 6.30}
{"INPUT SMILES": "CC(C)(c1nc(-c2cc(F)cc3[nH]ccc23)nc2c1OC[C@@H]1COCCN21)S(C)(=O)=O", "RESULT QUALIFIER": "=", "pIC50": 7.00}
{"INPUT SMILES": "CC(C)(c1nc(-c2cccc3[nH]ccc23)nc2c1OC[C@H]1COCCN21)S(C)(=O)=O", "RESULT QUALIFIER": "=", "pIC50": 6.07}

----------
biological target: ATM (Homo sapiens (Human), UniProt Q13315); assay: Cellular ATM inhibition, pCHK2 Thr68 after UV mimetic 4NQO; format: cell-based; settings: HT-29, read-out: UV mimetic inhibition of CHK2P at 10 μM (%); 10 μM compound, 3 μM 4NQO, HT29 cells
Sequence (Q13315 whole entry): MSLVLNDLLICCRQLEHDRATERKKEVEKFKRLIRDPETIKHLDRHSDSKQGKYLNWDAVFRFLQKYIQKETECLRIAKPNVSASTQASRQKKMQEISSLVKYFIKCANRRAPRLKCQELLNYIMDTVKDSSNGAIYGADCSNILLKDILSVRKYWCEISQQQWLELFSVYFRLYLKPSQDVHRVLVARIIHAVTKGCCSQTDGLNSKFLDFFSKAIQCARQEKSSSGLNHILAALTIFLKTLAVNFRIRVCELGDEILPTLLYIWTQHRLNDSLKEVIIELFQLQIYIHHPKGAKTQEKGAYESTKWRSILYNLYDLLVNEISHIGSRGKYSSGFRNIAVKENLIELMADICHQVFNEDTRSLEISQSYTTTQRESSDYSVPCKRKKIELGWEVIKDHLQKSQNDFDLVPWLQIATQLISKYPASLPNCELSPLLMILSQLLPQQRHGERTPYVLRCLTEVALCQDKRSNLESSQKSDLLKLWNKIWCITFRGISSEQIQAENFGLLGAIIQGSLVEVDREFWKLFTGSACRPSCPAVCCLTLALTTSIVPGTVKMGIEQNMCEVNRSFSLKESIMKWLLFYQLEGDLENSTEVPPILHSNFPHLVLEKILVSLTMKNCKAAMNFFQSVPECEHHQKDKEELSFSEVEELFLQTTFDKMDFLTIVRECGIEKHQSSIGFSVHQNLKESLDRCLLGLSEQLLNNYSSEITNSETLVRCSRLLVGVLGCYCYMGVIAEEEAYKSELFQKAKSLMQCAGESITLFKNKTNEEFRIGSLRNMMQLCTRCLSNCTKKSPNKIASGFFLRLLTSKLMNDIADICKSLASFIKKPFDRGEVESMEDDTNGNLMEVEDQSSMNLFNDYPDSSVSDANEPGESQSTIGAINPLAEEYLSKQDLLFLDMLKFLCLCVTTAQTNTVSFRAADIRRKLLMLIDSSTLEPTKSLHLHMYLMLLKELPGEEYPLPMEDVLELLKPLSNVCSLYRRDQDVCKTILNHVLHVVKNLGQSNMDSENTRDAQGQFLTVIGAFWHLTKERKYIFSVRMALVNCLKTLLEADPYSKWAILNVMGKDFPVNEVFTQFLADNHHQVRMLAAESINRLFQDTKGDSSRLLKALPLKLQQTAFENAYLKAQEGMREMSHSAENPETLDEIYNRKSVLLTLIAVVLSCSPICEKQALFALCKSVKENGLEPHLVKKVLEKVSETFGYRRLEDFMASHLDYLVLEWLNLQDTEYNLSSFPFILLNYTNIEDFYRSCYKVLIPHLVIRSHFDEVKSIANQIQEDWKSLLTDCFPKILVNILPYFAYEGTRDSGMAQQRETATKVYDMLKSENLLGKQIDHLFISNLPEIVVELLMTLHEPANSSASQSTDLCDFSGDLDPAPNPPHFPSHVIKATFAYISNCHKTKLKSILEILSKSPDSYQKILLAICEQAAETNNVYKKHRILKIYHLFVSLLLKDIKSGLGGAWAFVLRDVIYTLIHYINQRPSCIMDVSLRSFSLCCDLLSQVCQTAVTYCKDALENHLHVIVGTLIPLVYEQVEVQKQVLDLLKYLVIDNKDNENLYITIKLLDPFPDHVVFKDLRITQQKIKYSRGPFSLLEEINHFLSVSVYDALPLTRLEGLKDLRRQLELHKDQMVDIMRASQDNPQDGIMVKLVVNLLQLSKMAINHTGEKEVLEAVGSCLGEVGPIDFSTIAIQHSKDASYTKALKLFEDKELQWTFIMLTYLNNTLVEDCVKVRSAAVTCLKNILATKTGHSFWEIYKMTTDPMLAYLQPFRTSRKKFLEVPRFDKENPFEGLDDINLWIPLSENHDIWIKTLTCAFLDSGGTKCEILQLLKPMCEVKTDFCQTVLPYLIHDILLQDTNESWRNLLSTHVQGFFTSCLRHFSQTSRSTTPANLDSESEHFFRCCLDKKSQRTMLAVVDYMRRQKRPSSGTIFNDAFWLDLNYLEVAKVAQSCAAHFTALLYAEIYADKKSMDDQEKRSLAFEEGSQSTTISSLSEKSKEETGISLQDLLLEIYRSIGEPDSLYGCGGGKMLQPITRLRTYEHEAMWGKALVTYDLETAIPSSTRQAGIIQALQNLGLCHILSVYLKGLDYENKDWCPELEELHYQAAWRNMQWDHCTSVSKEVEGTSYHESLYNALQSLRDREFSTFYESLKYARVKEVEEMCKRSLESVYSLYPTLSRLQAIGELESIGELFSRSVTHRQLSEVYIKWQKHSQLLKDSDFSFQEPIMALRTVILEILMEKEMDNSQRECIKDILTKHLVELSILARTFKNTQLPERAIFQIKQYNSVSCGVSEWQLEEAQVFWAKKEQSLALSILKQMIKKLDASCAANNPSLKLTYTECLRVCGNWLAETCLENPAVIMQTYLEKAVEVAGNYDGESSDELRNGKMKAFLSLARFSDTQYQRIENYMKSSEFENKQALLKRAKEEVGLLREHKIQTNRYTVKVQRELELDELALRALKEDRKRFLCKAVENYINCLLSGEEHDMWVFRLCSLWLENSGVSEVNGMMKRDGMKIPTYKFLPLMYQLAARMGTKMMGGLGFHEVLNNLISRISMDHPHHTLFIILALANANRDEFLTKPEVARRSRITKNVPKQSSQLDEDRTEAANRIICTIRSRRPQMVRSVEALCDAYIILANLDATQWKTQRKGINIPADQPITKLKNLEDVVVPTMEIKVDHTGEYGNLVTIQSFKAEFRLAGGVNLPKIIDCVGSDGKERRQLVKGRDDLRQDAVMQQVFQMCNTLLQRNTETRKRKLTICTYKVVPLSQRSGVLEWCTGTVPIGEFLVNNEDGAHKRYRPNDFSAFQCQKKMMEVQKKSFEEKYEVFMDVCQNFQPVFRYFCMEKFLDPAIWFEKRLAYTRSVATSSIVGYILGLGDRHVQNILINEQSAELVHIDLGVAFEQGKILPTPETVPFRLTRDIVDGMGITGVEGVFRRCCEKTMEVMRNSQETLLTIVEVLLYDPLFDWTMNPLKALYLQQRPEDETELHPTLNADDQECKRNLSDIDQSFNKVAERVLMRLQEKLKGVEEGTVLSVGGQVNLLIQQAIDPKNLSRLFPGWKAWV
READOUT LABEL: inhibition at 10 µM

{"COMPOUND": "CC(C)(c1nc(-c2cccc3[nH]ccc23)nc2c1OCC1COCCN21)S(C)(=O)=O (stereo not shown) [Example 1]", "READOUT LABEL": "inhibition at 10 µM", "VALUE REPORTED": "0%"}
{"COMPOUND": "C[C@@H]1CN(CC(=O)Nc2ccc3c(c2)Cc2cccc(-c4cc(=O)cc(N5CCOCC5)o4)c2S3)C[C@H](C)O1 [ATM inhibitor KU-60019, reference compound]", "READOUT LABEL": "inhibition at 10 µM", "VALUE REPORTED": "99%"}
{"COMPOUND": "CS(=O)(=O)C1(c2nc(-c3cccc4[nH]ccc34)nc3c2OC[C@H]2COCCN32)CCOCC1 [Example 10]", "READOUT LABEL": "inhibition at 10 µM", "VALUE REPORTED": "25%"}
{"COMPOUND": "CS(=O)(=O)C1(c2nc(-c3cccc4[nH]ccc34)nc3c2OCC2COCCN32)CCOCC1 (stereo not shown) [Example 2]", "READOUT LABEL": "inhibition at 10 µM", "VALUE REPORTED": "0%"}
{"COMPOUND": "CS(=O)(=O)C1(c2nc(-c3cccc4[nH]ccc34)nc3c2OC[C@@H]2COCCN32)CCOCC1 [Example 3]", "READOUT LABEL": "inhibition at 10 µM", "VALUE REPORTED": "0%"}
{"COMPOUND": "O=S(=O)(Cc1nc(-c2cccc3[nH]ccc23)nc2c1OCC1COCCN21)C(F)(F)F (stereo not shown) [Example 5]", "READOUT LABEL": "inhibition at 10 µM", "VALUE REPORTED": "0%"}
{"COMPOUND": "CNc1nc2ccccc2n1-c1nc2c(c(C(C)(C)S(C)(=O)=O)n1)OCC1COCCN21 (stereo not shown) [Example 8]", "READOUT LABEL": "inhibition at 10 µM", "VALUE REPORTED": "25%"}
